Source listed as patent EP2997966A1.

TARGET: human Keap1 kelch domain (amino acids Ala321-Thr609) (Homo sapiens, UniProt Q14145)
Construct: human Keap1 kelch domain (amino acids Ala321-Thr609)
Sequence (Q14145 321-609): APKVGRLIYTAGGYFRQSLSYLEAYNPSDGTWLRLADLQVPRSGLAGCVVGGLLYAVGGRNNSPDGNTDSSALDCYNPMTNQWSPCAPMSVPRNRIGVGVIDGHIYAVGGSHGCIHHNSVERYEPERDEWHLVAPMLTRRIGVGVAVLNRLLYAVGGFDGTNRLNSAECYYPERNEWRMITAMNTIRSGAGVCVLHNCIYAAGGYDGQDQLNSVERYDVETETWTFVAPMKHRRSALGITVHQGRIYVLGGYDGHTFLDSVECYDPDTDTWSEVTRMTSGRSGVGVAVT
METHOD DESCRIPTION: Keap1-Nrf2 peptide binding assay (fluorescence polarisation)
TEST PARAMETERS: binding to fluorescently labeled human Nrf2 peptide; 20 nM Keap1 kelch domain, 50 nM peptide; read-out: IC50
Returns: string. Value is 1 if measured IC50 is below 1 µM, and 0 if it is greater than or equal to it.

> print(dat)
                                   molecule  class.name
1  CCCCCCCCn1nc(C)c(S(=O)(=O)Nc2ccc(N3CC[C@@H](C(=O)O)C3)c3ccccc23)c1C [Example 65]           1
2  Cc1cc(C)c(C)c(S(=O)(=O)Nc2ccc(C3CCCC3C(=O)O)c3ccccc23)c1C (stereo not drawn) [Example 1]           0
3  CC(=O)Nc1nc(C)c(S(=O)(=O)Nc2ccc(N3CC[C@@H](C(=O)O)C3)c3ccccc23)s1 [Example 31]           0
4  Cc1c(Cl)cccc1S(=O)(=O)Nc1ccc(N2CC[C@H](C(=O)O)C2)c2ccccc12 [Example 16]           0
5  O=C(O)[C@@H]1CCN(c2ccc(NS(=O)(=O)c3ccc(Cl)c(C(F)(F)F)c3)c3ccccc23)C1 [Example 40]           0

For Cc1cc(C)c(C)c(S(=O)(=O)Nc2ccc(N3CCC(C)(C(=O)O)C3)c3ccccc23)c1C (stereo not drawn) [Example 9] , is the recorded IC50 below the cut-off of 1 µM?
1

Bench note: check whether Cc1cc(C)c(C)c(S(=O)(=O)Nc2ccc(N3CCC[C@H](C(=O)O)C3)c3ccccc23)c1C [Example 59] shows IC50 below 1 µM
1

Consider CCCCCCCCn1nc(C)c(S(=O)(=O)Nc2ccc(N3CC[C@@H](C(=O)O)C3)c3ncccc23)c1C [Example 73] . Does its IC50 lie strictly below 1 µM?
0

Determine whether this molecule shows IC50 lower than 1 µM (ties excluded): O=C(O)[C@@H]1CCN(c2ccc(NS(=O)(=O)c3ccc4c(c3)CCCC4)c3ccccc23)C1 [Example 77]
1

Find out if reported IC50 for Cc1c(S(=O)(=O)Nc2ccc(N3CC[C@@H](C(=O)O)C3)c3ccccc23)cnn1-c1ccccc1 [Example 39] is less than 1 µM
0

* * *

Readings of IC50 for the listed compounds
TARGET: human Keap1 kelch domain (amino acids Ala321-Thr609) (Homo sapiens, UniProt Q14145)
Construct: human Keap1 kelch domain (amino acids Ala321-Thr609)
METHOD DESCRIPTION: Keap1-Nrf2 peptide binding assay (fluorescence polarisation)
TEST PARAMETERS: binding to fluorescently labeled human Nrf2 peptide; 20 nM Keap1 kelch domain, 50 nM peptide; read-out: IC50
Your answer should be a plain number; it is taken to be in µM.

Solved cases (3 shown):
> print(dat)
                                smiles.text                                    target  readout.name   u  result.value
1  Cc1c(S(=O)(=O)Nc2ccc(N3CC[C@@H](C(=O)O)C3)c3ncccc23)sc2ccc(Cl)cc12  human Keap1 kelch domain (amino acids Ala321-Thr609) (Homo sapiens, UniProt Q14145)          IC50  µM           0.4
2  O=C(O)[C@H]1CCN(c2ccc(NS(=O)(=O)c3cc(Cl)sc3Cl)c3ccccc23)C1  human Keap1 kelch domain (amino acids Ala321-Thr609) (Homo sapiens, UniProt Q14145)          IC50  µM             9
3  O=C(O)[C@@H]1CCN(c2ccc(NS(=O)(=O)c3cc(Cl)sc3Cl)c3ccccc23)C1  human Keap1 kelch domain (amino acids Ala321-Thr609) (Homo sapiens, UniProt Q14145)          IC50  µM           2.9

Hello, please tell me recorded IC50 for this one: `O=C(O)[C@H]1CCN(c2ccc(NS(=O)(=O)c3ccc(Cl)cc3Cl)c3ccccc23)C1`
6.2
